# assayText: Effect of compound on modification of oxy form of hemoglobin was expressed as percent modification at 5 mM concentration
# Assay type: functional
Modification of hemoglobin: recorded values
Value expressed in %; do not type the unit.

{"columns": ["smilesString", "Modification of hemoglobin, %"],
 "data": [
  ["NC(=O)Oc1ccccc1C(=O)OCc1ccccc1", 45],
  ["COC(=O)c1ccccc1OC(N)=O", 54],
  ["NC(=O)Oc1ccccc1C(=O)O", 62],
  ["COC(=O)c1ccc(OC(N)=O)cc1", 61],
  ["CN(C)C(=O)Oc1c(Br)cc(Br)cc1C(=O)OCc1ccccc1", 0]
]}

Input line: Suppose we examine the compound "CN(C)C(=O)Oc1ccccc1C(=O)OCc1ccccc1" ; what Modification of hemoglobin value has been reported?
Output line: 0

Source of measurements: ChEMBL document CHEMBL1123749
